Target: CFTR (F508del/MF-HBE cells) (Homo sapiens, UniProt P13569, DEL508-508)
Construct: human bronchial epithelial (HBE) cells derived from CF subjects heterozygous for F508del and a minimal function CFTR mutation; endogenous in cells; host or cells: primary human bronchial epithelial cells from CF subjects (F508del/MF genotype)
Sequence (P13569 with tags, fused parts or gaps DEL508-508): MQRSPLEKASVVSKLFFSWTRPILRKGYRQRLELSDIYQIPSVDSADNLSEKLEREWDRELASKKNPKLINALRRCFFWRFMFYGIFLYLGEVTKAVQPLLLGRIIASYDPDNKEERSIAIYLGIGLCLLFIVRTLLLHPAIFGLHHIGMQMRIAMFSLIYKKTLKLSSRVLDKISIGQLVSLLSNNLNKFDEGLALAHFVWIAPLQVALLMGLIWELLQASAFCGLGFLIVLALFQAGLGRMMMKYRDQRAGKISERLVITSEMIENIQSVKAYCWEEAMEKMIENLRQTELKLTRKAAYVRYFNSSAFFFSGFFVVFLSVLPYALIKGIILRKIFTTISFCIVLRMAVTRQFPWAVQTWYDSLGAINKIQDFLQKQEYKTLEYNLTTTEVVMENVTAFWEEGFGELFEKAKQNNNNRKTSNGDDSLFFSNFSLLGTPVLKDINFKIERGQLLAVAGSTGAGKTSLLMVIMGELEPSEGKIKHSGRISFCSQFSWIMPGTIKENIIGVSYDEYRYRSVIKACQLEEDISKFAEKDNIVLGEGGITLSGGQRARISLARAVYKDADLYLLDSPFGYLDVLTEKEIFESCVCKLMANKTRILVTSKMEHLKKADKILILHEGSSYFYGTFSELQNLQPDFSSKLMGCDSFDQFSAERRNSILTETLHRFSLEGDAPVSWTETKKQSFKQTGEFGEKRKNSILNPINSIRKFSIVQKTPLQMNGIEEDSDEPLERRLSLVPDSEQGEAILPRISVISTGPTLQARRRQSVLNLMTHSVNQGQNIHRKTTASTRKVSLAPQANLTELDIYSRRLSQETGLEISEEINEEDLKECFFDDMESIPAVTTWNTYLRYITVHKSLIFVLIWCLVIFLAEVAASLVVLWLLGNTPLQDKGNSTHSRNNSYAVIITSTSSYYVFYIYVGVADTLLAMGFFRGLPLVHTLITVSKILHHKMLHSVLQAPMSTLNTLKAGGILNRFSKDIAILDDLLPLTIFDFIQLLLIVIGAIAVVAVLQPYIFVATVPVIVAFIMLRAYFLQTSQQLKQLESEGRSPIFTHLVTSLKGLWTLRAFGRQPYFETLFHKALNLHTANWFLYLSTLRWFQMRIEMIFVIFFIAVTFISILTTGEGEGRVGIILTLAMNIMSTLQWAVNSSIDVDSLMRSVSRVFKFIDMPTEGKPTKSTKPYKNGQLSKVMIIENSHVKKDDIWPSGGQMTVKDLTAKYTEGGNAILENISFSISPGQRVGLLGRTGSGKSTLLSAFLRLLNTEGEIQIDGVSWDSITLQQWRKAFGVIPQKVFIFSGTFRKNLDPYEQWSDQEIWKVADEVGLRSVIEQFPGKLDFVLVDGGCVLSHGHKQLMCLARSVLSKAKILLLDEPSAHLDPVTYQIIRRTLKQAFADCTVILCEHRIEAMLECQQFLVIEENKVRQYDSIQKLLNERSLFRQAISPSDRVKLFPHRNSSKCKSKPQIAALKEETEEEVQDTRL
Assay: Ussing chamber assay of CFTR-mediated short-circuit currents (identification of potentiator compounds)
Assay type: cell-based
Conditions: CFTR-mediated ISC in F508del/MF-HBE cells; incubated 18-24 hours at 37° C. with 10 μM (14S)-8-[3-(2-{dispiro[2.0.2.1]heptan-7-yl}ethoxy)-1H-pyrazol-1-yl]-...-2,2,4-trione, 20% human serum
Measurement Name: EC50

I'm curious: which EC50 was measured for Nc1cc(C(F)(F)F)c2nc1-c1nnc(o1)[C@@](O)(C(F)(F)F)c1cc(ccc1F)CCC[C@@H]1CCCN21 tested on CFTR (F508del/MF-HBE cells) (Homo sapiens, UniProt P13569, DEL508-508)?
< 500 nM

Param readout= EC50; system= CFTR (F508del/MF-HBE cells) (Homo sapiens, UniProt P13569, DEL508-508); entry= CCNc1cc(C(F)(F)F)c2nc1-c1nnc(o1)[C@](O)(C(F)(F)F)CCCCC[C@@H]1CCCN21 ; returns value.
> 1000 nM

Lab request: please report EC50 under test system CFTR (F508del/MF-HBE cells) (Homo sapiens, UniProt P13569, DEL508-508) for Nc1cc(C(F)(F)F)c2nc1-c1nnc(o1)[C@](O)(C(F)(F)F)c1cc(ccc1F)C=CC[C@@H]1CCCN21 (mixture of isomers)
> 1000 nM

Checklist item: EC50 tested on CFTR (F508del/MF-HBE cells) (Homo sapiens, UniProt P13569, DEL508-508), entry COc1cc(N)c2nc1N1CCC[C@H]1CCCCCC(O)(C(F)(F)F)C1=NN=C2O1 (single isomer, unassigned) [Compound 115] , value?
> 1000 nM

Lab request: please report EC50 under test system CFTR (F508del/MF-HBE cells) (Homo sapiens, UniProt P13569, DEL508-508) for CN1CCCCCCC(O)(C(F)(F)F)C2=NN=C(O2)c2nc1c(C(F)(F)F)cc2N (single isomer, unassigned) [Compound 19]
< 500 nM

Return EC50 measured with CFTR (F508del/MF-HBE cells) (Homo sapiens, UniProt P13569, DEL508-508) given this compound: Nc1ccc2nc1-c1nnc(o1)C(O)(C(F)(F)F)CCCCC[C@@H]1CCCN21 (single isomer, unassigned) [Compound 72]
> 1000 nM

Report EC50 for CN1CCCCCCC(O)(c2ccccc2)C2=NN=C(O2)c2nc1c(C(F)(F)F)cc2N (single isomer, unassigned) [Compound 76] tested on CFTR (F508del/MF-HBE cells) (Homo sapiens, UniProt P13569, DEL508-508).
< 500 nM

Query for CFTR (F508del/MF-HBE cells) (Homo sapiens, UniProt P13569, DEL508-508): what EC50 does the record show for Nc1cc(C(F)(F)F)c2nc1-c1nnc(o1)C(O)(C(F)(F)F)CCCCCCC1CCCN21 (single isomer, unassigned) [Compound 24] ?
< 500 nM

Give CFTR (F508del/MF-HBE cells) (Homo sapiens, UniProt P13569, DEL508-508) EC50 for COC(=O)c1cc(N)c2nc1N1CCC[C@H]1CCCCCC(O)(C(F)(F)F)C1=NN=C2O1 (single isomer, unassigned) [Compound 170]
< 500 nM

Find EC50 (CFTR (F508del/MF-HBE cells) (Homo sapiens, UniProt P13569, DEL508-508)) for the entry Nc1cc(C(F)(F)F)c2nc1-c1nnc(o1)C(O)(C(F)(F)F)CCCCCCC1CCCN21 (single isomer, unassigned) [Compound 25]
< 500 nM

Please state recorded EC50 (tested on CFTR (F508del/MF-HBE cells) (Homo sapiens, UniProt P13569, DEL508-508)) of Nc1ccc2nc1-c1nnc(o1)C(O)(C(F)(F)F)CCCCC[C@@H]1CCCN21 (single isomer, unassigned) [Compound 71]
< 500 nM

Notebook entry, CFTR (F508del/MF-HBE cells) (Homo sapiens, UniProt P13569, DEL508-508) assay: EC50 of Nc1cc(C(F)(F)F)c2nc1-c1nnc(o1)C(O)(C(F)(F)F)CCCCCCC(=O)N2 (single isomer, unassigned) [Compound 107] = ?
> 1000 nM

Give CFTR (F508del/MF-HBE cells) (Homo sapiens, UniProt P13569, DEL508-508) EC50 for COC(=O)c1cc(N)c2nc1N1CCC[C@H]1CCCCCC(O)(C(F)(F)F)C1=NN=C2O1 (single isomer, unassigned) [Compound 169]
> 1000 nM

CFTR (F508del/MF-HBE cells) (Homo sapiens, UniProt P13569, DEL508-508) / EC50 / CS(=O)(=O)c1cc(N)c2nc1N1CCC[C@H]1CCCCCC(O)(C(F)(F)F)C1=NN=C2O1 (single isomer, unassigned) : value?
< 500 nM

What value of EC50 on CFTR (F508del/MF-HBE cells) (Homo sapiens, UniProt P13569, DEL508-508) does Nc1cc(C(F)(F)F)c2nc1-c1nnc(o1)C(=O)CCCCC[C@@H]1CCCN21 have?
< 500 nM

Checklist item: EC50 tested on CFTR (F508del/MF-HBE cells) (Homo sapiens, UniProt P13569, DEL508-508), entry Nc1cc(C2CC2)c2nc1-c1nnc(o1)C(O)(C(F)(F)F)CCCCC[C@@H]1CCCN21 (single isomer, unassigned) [Compound 90] , value?
< 500 nM

Which EC50 is reported with CFTR (F508del/MF-HBE cells) (Homo sapiens, UniProt P13569, DEL508-508) for this entry: Nc1cc(C2CC2)c2nc1-c1nnc(o1)C(O)(C(F)(F)F)CCCCC[C@@H]1CCCN21 (single isomer, unassigned) [Compound 91] ?
> 1000 nM

For CFTR (F508del/MF-HBE cells) (Homo sapiens, UniProt P13569, DEL508-508), provide EC50 of Nc1cc(C(F)(F)F)c2nc1-c1nnc(o1)C(O)(C(F)(F)F)CCCCCC(c1ccccc1)N2 (single isomer, unassigned) [Compound 120] please.
< 500 nM

Report EC50 for Nc1cc(C2CCOCC2)c2nc1-c1nnc(o1)C(O)(C(F)(F)F)CCCCC[C@@H]1CCCN21 (mixture of isomers) tested on CFTR (F508del/MF-HBE cells) (Homo sapiens, UniProt P13569, DEL508-508).
> 1000 nM

Give EC50 (CFTR (F508del/MF-HBE cells) (Homo sapiens, UniProt P13569, DEL508-508)) of the following compound: Nc1cc(C(F)(F)F)c2nc1-c1nnc(o1)C(O)(C(F)(F)F)CCCCC1CCCN21 (stereo not shown) [Compound 17]
< 500 nM

Requested read-out EC50, target or system CFTR (F508del/MF-HBE cells) (Homo sapiens, UniProt P13569, DEL508-508), entry CP(C)(=O)c1cc(N)c2nc1N1CCC[C@H]1CCCCCC(O)(C(F)(F)F)C1=NN=C2O1 (single isomer, unassigned) [Compound 99]
> 1000 nM

# get_value(readout= EC50, system= CFTR (F508del/MF-HBE cells) (Homo sapiens, UniProt P13569, DEL508-508)) for Nc1cc(C(F)(F)F)c2nc1-c1nnc(o1)C(O)(C(F)(F)F)CCCCCCC1CCCN21 (single isomer, unassigned) [Compound 26]
> 1000 nM

State its EC50 on CFTR (F508del/MF-HBE cells) (Homo sapiens, UniProt P13569, DEL508-508): CC1(O)CCCCC[C@@H]2CCCN2c2nc(c(N)cc2C(F)(F)F)C2=NN=C1O2 (single isomer, unassigned)
< 500 nM

Please provide the recorded EC50 for CC1(C)Nc2nc(c(N)cc2C(F)(F)F)C2=NN=C(O2)[C@@](O)(C(F)(F)F)CCCCC1O (single isomer, unassigned) [Compound 204] , tested on CFTR (F508del/MF-HBE cells) (Homo sapiens, UniProt P13569, DEL508-508).
< 500 nM

Query for CFTR (F508del/MF-HBE cells) (Homo sapiens, UniProt P13569, DEL508-508): what EC50 does the record show for Nc1cc(C(F)(F)F)c2nc1-c1nnc(o1)[C@@](O)(C(F)(F)F)CCCCCC(C(=O)N1CCCC1)N2 (stereo partly shown) [Compound 154] ?
> 1000 nM

---

For each of the compounds below, state its EC50.
Target: CFTR (F508del/MF-HBE cells) (Homo sapiens, UniProt P13569, DEL508-508)
Construct: human bronchial epithelial (HBE) cells derived from CF subjects heterozygous for F508del and a minimal function CFTR mutation; endogenous in cells
Experiment: Ussing chamber assay of CFTR-mediated short-circuit currents (identification of potentiator compounds)
Details: CFTR-mediated ISC in F508del/MF-HBE cells; incubated 18-24 hours at 37° C. with 10 μM (14S)-8-[3-(2-{dispiro[2.0.2.1]heptan-7-yl}ethoxy)-1H-pyrazol-1-yl]-...-2,2,4-trione, 20% human serum

Give the measured EC50 of Nc1cc(C(F)(F)F)c2nc1-c1nnc(o1)C(O)(C(F)(F)F)CCCCC1CCCN21 (stereo not shown) [Compound 18] .
< 500 nM

Which EC50 value belongs to CCOC(=O)CN1CCCCCCC(O)(C(F)(F)F)C2=NN=C(O2)c2nc1c(C(F)(F)F)cc2N (single isomer, unassigned) [Compound 46] ?
< 500 nM

Return reported EC50; argument: CC1(C)CCCCC(O)C(O)(C(F)(F)F)C2=NN=C(O2)c2nc(c(C(F)(F)F)cc2N)N1 (single isomer, unassigned) [Compound 195]
> 1000 nM

Returns the measured EC50 for the input compound. Input: Nc1cc(C(F)(F)F)c2nc1-c1nnc(o1)[C@](O)(C(F)(F)F)CCCCC[C@@H]1CCCN21 [Compound 5]
> 1000 nM

Could you share which EC50 value was measured for CN1CCN(C)c2nc(c(N)cc2C(F)(F)F)C2=NN=C(O2)C(O)(C(F)(F)F)CCC1=O (single isomer, unassigned) [Compound 44] ?
500 to 1000 nM

Field request: EC50 | item: Nc1cc(C(F)(F)F)c2nc1-c1nnc(o1)C(O)(C(F)(F)F)CCCOC[C@@H]1CCCN21 (stereo partly shown) [Compound 147]
< 500 nM

For the compound CC1(C)CC2CCCCCC(O)(C(F)(F)F)C3=NN=C(O3)c3nc(c(C(F)(F)F)cc3N)N2C1 (single isomer, unassigned) [Compound 29] , what EC50 is on record?
< 500 nM

If you can, please state the reported EC50 value of CC1(C)CCCCC[C@](O)(C(F)(F)F)C2=NN=C(O2)c2nc(c(C(F)(F)F)cc2N)N1 [Compound 163] .
< 500 nM

# EC50 lookup, item CC1(C)CC2CCCc3ccc(F)c(c3)C(O)(C(F)(F)F)C3=NN=C(O3)c3nc(c(C(F)(F)F)cc3N)N2C1 (stereo not shown) [Compound 135]
< 500 nM

# EC50 lookup, item CN1CCCCCCC(O)(C(F)(F)F)C2=NN=C(O2)c2nc1c(C(F)(F)F)cc2N (single isomer, unassigned) [Compound 20]
500 to 1000 nM

Entry CN1CCCCCCC(O)(C2CC2)C2=NN=C(O2)c2nc1c(C(F)(F)F)cc2N (single isomer, unassigned) [Compound 79] : reported EC50 = ?
> 1000 nM

Request the reported EC50 associated with Nc1cc(C(F)(F)F)c2nc1-c1nnc(o1)C(O)(C(F)(F)F)c1cccc(n1)CCC[C@@H]1CCCN21 (single isomer, unassigned) [Compound 82]
< 500 nM

Fill in: EC50 of Nc1cc(C(F)(F)F)c2nc1-c1nnc(o1)C(O)(CO)CCCCC[C@@H]1CCCN21 (single isomer, unassigned) [Compound 100] is ___
500 to 1000 nM

Dear colleague, I am looking for the recorded EC50 of the following compound: Nc1cc(C(F)(F)F)c2nc1-c1nnc(o1)[C@@](O)(C(F)(F)F)CCCCCC1(CCOC1)N2 (single isomer, unassigned) [Compound 208]
< 500 nM

Give its EC50 value. Item: Nc1cc(C(F)(F)F)c2nc1-c1nnc(o1)C(O)(C(F)(F)F)CCCCCC1CCS(=O)(=O)N21 (single isomer, unassigned) [Compound 110]
< 500 nM

What does the record list as EC50 for Nc1cc(C2CCOC2)c2nc1-c1nnc(o1)C(O)(C(F)(F)F)CCCCC[C@@H]1CCCN21 (mixture of isomers) [Compound 126] ?
> 1000 nM

Give its EC50 value. Item: CCOC(=O)C1CCCCCC(O)(C(F)(F)F)C2=NN=C(O2)c2nc(c(C(F)(F)F)cc2N)N1 (single isomer, unassigned) [Compound 95]
< 500 nM

For Nc1cc(C(F)(F)F)c2nc1-c1nnc(o1)[C@@](O)(C(F)(F)F)CCCCCC(C(=O)O)N2 (single isomer, unassigned) [Compound 156] , what is its reported EC50?
< 500 nM

What value of measured EC50 is listed for Nc1cc(C(F)(F)F)c2nc1-c1nnc(o1)C(O)(C(F)(F)F)CCCCCC(c1ccccc1)N2 (single isomer, unassigned) [Compound 119] ?
< 500 nM

Which value of EC50 has been reported for CN1CCCCCCC(O)(C2CC2)C2=NN=C(O2)c2nc1c(C(F)(F)F)cc2N (single isomer, unassigned) [Compound 78] in the records?
< 500 nM

Item Nc1cc(-c2ccncc2)c2nc1-c1nnc(o1)C(O)(C(F)(F)F)CCCCC[C@@H]1CCCN21 (mixture of isomers) [Compound 125] has what recorded EC50?
> 1000 nM

State the recorded EC50 for this entry: Nc1cc(C(F)(F)F)c2nc1-c1nnc(o1)C(O)(C(F)(F)F)CCCCC[C@@H]1COCCN21 (single isomer, unassigned) [Compound 54]
< 500 nM

Would you kindly share the measured EC50 for Nc1cc(-c2ccccc2)c2nc1-c1nnc(o1)C(O)(C(F)(F)F)CCCCC[C@@H]1CCCN21 (mixture of isomers) [Compound 118] ?
> 1000 nM

// query EC50 value for entry COCCN1CCCCCCC(O)(C(F)(F)F)C2=NN=C(O2)c2nc1c(C(F)(F)F)cc2N (single isomer, unassigned) [Compound 34]
< 500 nM

Requested read-out: EC50. Entry: Nc1cc(C2CCCCC2)c2nc1-c1nnc(o1)C(O)(C(F)(F)F)CCCCC[C@@H]1CCCN21 (mixture of isomers) [Compound 129]
< 500 nM
